target: T1, monkey SEMA4D, full length, on CHO-K1 cells (CHO-K1 cSEMA4D) (monkey); assay: FACS, CHO-K1 cSEMA4D cells; Ab 0.00427 nM
T1 construct: whole, on cells; also called monkey SEMA4D recombinant cells
Quick reference: MFI of the listed items.
Respond with the number and no other words.

Please review the entries below; each comes with its answer.
binder	experimentalReadout	observedMeasurement
42B7G2 (antibody, V domains shown, Mouse monoclonal antibody purified from hybridoma supernatant on protein A) VH: QVQLQQSGAELARPGASVKLSCKASGYTFTDYGISWVKQRTGQGLEWIGEIYLRNDNSYYNEKFKGKATLTADKSSNTAYMELRSLTSEDSAVYFCARWGDHGNNYEDAMDYWGQGTSVTVSS VL: DIVLTQSPASLAMSLGKRATISCRASESVSIIGSNLIHWYQQKPGQPPKLLIYHASNLETGVPARFSGSGSRTDFTLTIDPVEEDDVAIYYCLQSRKVPYTFGGGTKLEIK	MFI	92.7
37C4F7 (antibody, V domains shown, Mouse monoclonal antibody purified from hybridoma supernatant on protein A) VH: EFQLQQSGPEVVKPGASVKISCKASGYSFTDYNMNWMKQSKGKSLEWIGVINPNYGTTTYNQNFKGKATLTVDQSSSTAYMQLNSLTSEDSAVYYCARDMYYVYAYYTMDYWGQGTSVTVSS VL: DVVMTQTPLSLPVSLGDQASISCRSSQSLVHSNGHTYLHWYLQRPGQSPTLLIYKVSNRFSGVPDRFSGSGSGTDFTLKISRVEAEDLGVYFCSQGTHVPWTFGGGTKLEIK	MFI	38.2
31C11G2 (antibody, V domains shown, Mouse monoclonal antibody purified from hybridoma supernatant on protein A) VH: EVQLQQSGAELVRPGASVKLSCTASGFNIKDEYIHWVKQRPEQGLEWIGWIDPANGHTEYASRFQAKATITADTSSNTAYLQLSSLTSEDTAVYYCTTGDYDGFVYWGQGTLVTVST VL: QIVLTQSPAIMSASPGEKVTIFCSARSSVSYMYWYQQKPGSSPKPWIYRTSNLASGVPARFSGSGSGTSYSLTISSMEAEDAATYYCQHYHTYPYTFGGGTKLEIK	MFI	139

Alright, here's another binder for you.
Name the reported MFI value associated with the binder 38H2E3 (antibody, V domains shown, Mouse monoclonal antibody purified from hybridoma supernatant on protein A) VH: EFQLQQSGPEVVKPGASVKISCKASGYSFTDYNMNWMKQSKGKSLEWIGVISPDYGTTTYNQNFKDKATLTVDQSSSTAYMQLNSLTSEDSAVYYCAKDMYYVYAYYTMDYWGHGTSVTVSS VL: DVVMTQTPLSLPVSLGDQASISCRSSQSLVHSNGHTYLHWYLQRPGQSPTLLIYKVSNRFSGVPDRVSGSGSGTDFTLKISRVEAEDLGVYFCSQGTHVPRTFGGGTKLEIK
35
